- Substrate: O=C(/C=C/c1ccc(O)cc1)c1c(O)cc(O)cc1O
- assay-comment: purified protein
observation-type: Km
Kindly write the number and append the unit.

# input Need Km of MsCHI-2 (Medicago sativa; K97M) (protein) MAASITAITVENLEYPAVVTSPVTGKSYFLGGAGERGLTIEGNFIKFTAIGVYLEDIAVASLAAKWKGKSSEELLETLDFYRDIISGPFEKLIRGSMIRELSGPEYSRKVMENCVAHLKSVGTYGDAEAEAMQKFAEAFKPVNFPPGASVFYRQSPDGILGLSFSPDTSIPEKEAALIENKAVSSAVLETMIGEHAVSPDLKRCLAARLPALLNEGAFKIGN , thanks.
# output 14.5 ± 4.2 µM

# input Need Km of MsCHI-2 (Medicago sativa; R36K) (protein) MAASITAITVENLEYPAVVTSPVTGKSYFLGGAGEKGLTIEGNFIKFTAIGVYLEDIAVASLAAKWKGKSSEELLETLDFYRDIISGPFEKLIRGSKIRELSGPEYSRKVMENCVAHLKSVGTYGDAEAEAMQKFAEAFKPVNFPPGASVFYRQSPDGILGLSFSPDTSIPEKEAALIENKAVSSAVLETMIGEHAVSPDLKRCLAARLPALLNEGAFKIGN , thanks.
# output 98.3 ± 1.5 µM

# input Need Km of MsCHI-2 (Medicago sativa; G95V) (protein) MAASITAITVENLEYPAVVTSPVTGKSYFLGGAGERGLTIEGNFIKFTAIGVYLEDIAVASLAAKWKGKSSEELLETLDFYRDIISGPFEKLIRVSKIRELSGPEYSRKVMENCVAHLKSVGTYGDAEAEAMQKFAEAFKPVNFPPGASVFYRQSPDGILGLSFSPDTSIPEKEAALIENKAVSSAVLETMIGEHAVSPDLKRCLAARLPALLNEGAFKIGN , thanks.
# output 5.3 ± 2.6 µM
